Molecular target: T1, Nbp2, Q12163
T1 sequence (Q12163 103-180, looked up): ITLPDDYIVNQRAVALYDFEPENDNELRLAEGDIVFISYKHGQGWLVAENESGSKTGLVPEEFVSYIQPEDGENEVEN
Experiment: SPOT array
Conditions: median of control spots 357
Measurement type: SPOT intensity

Here is how some binders turned out for SPOT intensity.
Binder: QGYPRQPQRPQRYHP
SPOT intensity: 0

Binder: GKLKHIPRRPYEIER
SPOT intensity: 0

Binder: GRLRPKRIAPWHLIQ
SPOT intensity: 10

P = PKRRAPPPVPKKPSS
Q = LYEAMPPTLPHRDWK
Prompt: Field: entry with larger SPOT intensity (options P / Q ). Reply briefly: the label of your chosen item.
Response: P
(P: 650, Q: 0)

A = ATKSASPTLPTRRSR
B = AHFQPQRTAPKPPIS
Prompt: Of the pair A and B , name the member with the lesser recorded SPOT intensity. Reply briefly: the label of your chosen item.
Response: A
